molecular target: Cannabinoid receptor 1 (Homo sapiens); experiment: Displacement of 3[H]ligand from recombinant human CB1 receptor
# maps each entry to its log10 IC50
Transform log10 | Measure IC50 | Unit nM

• NC(=O)CN=C(NS(=O)(=O)c1ccc(Cl)cc1)N1CC(c2ccccc2)C(c2ccc(Cl)cc2)=N1 (single isomer, unassigned; enantiomer 1) = 1.51
• C[C@H](N=C(NS(=O)(=O)c1ccc(Cl)cc1)N1CC(c2ccccc2)C(c2ccc(Cl)cc2)=N1)C(=O)N[C@@H](CO)C(N)=O (stereo not given in full) = 0.90
• CC(C)[C@H](N/C(=N\S(=O)(=O)c1ccc(Cl)cc1)N1CC(c2ccccc2)C(c2ccc(Cl)cc2)=N1)C(N)=O (stereo not given in full) = 0.30
• C[C@H](NC(=O)[C@H](C)N/C(=N\S(=O)(=O)c1ccc(Cl)cc1)N1CC(c2ccccc2)C(c2ccc(Cl)cc2)=N1)C(N)=O (stereo not given in full) = 1.43

Given NC(=O)CN/C(=N\S(=O)(=O)c1ccc(Cl)cc1)N1CC(c2ccccc2)C(c2ccc(Cl)cc2)=N1 (racemic) , state its recorded log10 IC50.
1.26

Also need NC(=O)[C@@H](O)CCN/C(=N\S(=O)(=O)c1ccc(Cl)cc1)N1CC(c2ccccc2)C(c2ccc(Cl)cc2)=N1 (stereo not given in full) , thanks.
1.82

Next up: CCOC(=O)Nc1ccc(S(=O)(=O)NC(=NC)N2CC(c3ccccc3)C(c3ccc(Cl)cc3)=N2)cc1 (racemic)
2.48

Cool, now CN=C(NS(=O)(=O)c1ccc(OC)cc1)N1CC(c2ccccc2)C(c2ccc(Cl)cc2)=N1 (racemic)
2.00

Likewise for NC(=O)CCN=C(NS(=O)(=O)c1ccc(Cl)cc1)N1CC(c2ccccc2)C(c2ccc(Cl)cc2)=N1 (racemic) ?
1.51

Next: NC(=O)[C@H](CO)N=C(NS(=O)(=O)c1ccc(Cl)cc1)N1CC(c2ccccc2)C(c2ccc(Cl)cc2)=N1 (stereo not given in full)
1.11

====

molecular target: Cannabinoid receptor 1 (Homo sapiens, UniProt P21554); test: Displacement of 3[H]ligand from recombinant human CB1 receptor
Sequence (P21554 whole entry): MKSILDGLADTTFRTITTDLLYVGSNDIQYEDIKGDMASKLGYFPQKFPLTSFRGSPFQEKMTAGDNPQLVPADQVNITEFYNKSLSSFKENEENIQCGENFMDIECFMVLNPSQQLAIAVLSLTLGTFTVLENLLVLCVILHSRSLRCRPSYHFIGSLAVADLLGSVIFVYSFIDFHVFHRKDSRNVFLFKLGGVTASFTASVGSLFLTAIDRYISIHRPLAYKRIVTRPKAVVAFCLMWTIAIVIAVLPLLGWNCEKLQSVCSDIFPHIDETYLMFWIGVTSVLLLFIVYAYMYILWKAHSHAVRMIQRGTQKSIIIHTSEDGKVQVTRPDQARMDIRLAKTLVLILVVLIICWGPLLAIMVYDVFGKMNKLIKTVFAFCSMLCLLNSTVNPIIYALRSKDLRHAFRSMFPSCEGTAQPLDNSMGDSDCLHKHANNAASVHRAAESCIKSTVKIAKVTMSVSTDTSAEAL
pIC50: −log10 of the molar value.
The reader will find reported pIC50 values listed item by item below.

- COc1ccc(S(=O)(=O)/N=C(\N[C@@H](C)C(=O)N[C@@H](CO)C(N)=O)N2CC(c3ccccc3)C(c3ccc(Cl)cc3)=N2)cc1 (some centres not stated): < 7.00
- CC(C)(N/C(=N\S(=O)(=O)c1ccc(Cl)cc1)N1CC(c2ccccc2)C(c2ccc(Cl)cc2)=N1)C(N)=O (racemic): 8.07
- C[C@@H](O)[C@H](N/C(=N/S(=O)(=O)c1ccc(Cl)cc1)N1CC(c2ccccc2)C(c2ccc(Cl)cc2)=N1)C(N)=O (some centres not stated): 8.15
- C[C@H](N=C(NS(=O)(=O)c1ccc(Cl)cc1)N1CC(c2ccccc2)C(c2ccc(Cl)cc2)=N1)C(=O)O (some centres not stated): < 6.00
- CN/C(=N\S(=O)(=O)c1ccc(C(N)=O)cc1)N1CC(c2ccccc2)C(c2ccc(Cl)cc2)=N1 (racemic): < 5.30

# get_value(readout='pIC50', item= NC(=O)C[C@H](N=C(NS(=O)(=O)c1ccc(Cl)cc1)N1CC(c2ccccc2)C(c2ccc(Cl)cc2)=N1)C(N)=O (some centres not stated) )
< 7.00

// next record O=C(O)[C@@H](O)CCN=C(NS(=O)(=O)c1ccc(Cl)cc1)N1CC(c2ccccc2)C(c2ccc(Cl)cc2)=N1 (some centres not stated)
< 6.00

Entry source: ChEMBL document CHEMBL2150881
